Source of measurements: patent US20030068675

- assayedTarget: T1, ZFP SBS#1118 (synthetic)
- T1 chain: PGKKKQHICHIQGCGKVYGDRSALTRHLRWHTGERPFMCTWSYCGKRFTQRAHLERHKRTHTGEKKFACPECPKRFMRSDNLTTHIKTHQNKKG
- testProtocol: EMSA
- conditionLabel: tags: MBP fusion
measuredEndpoint: pKd
One number for each entry, as −log10 of the molar value.

INPUT: Requested field: pKd. Item: TAGGGAGTC (dsDNA) DNA 1: TAGGGAGTC DNA 2: GACTCCCTA
OUTPUT: 8.85
